Data origin: patent US11524082B2

assayedTarget: CAIX (Homo sapiens, UniProt Q16790)
assayName: In vitro binding affinity of radiolabeled Conjugate 17 in A549 cells (gamma counting)
Parameters: expressed in transfected cells
testSettings: 64Cu-radiolabeled, 1 h at 25° C., FIG. 10

{"molecule": "NS(=O)(=O)c1c(F)c(F)c(S(=O)(=O)CCC(=O)NCCOCCOCCC(=O)NCCNC(=O)CCC(C(=O)O)N2CCN(CC(=O)O)CCN(CC(=O)O)CC2)c(NC2CCCCCCC2)c1F (stereo not shown) [radiolabeled Conjugate 17]", "unitName": "nM", "Kd": 6.04}

---

assayedTarget: CAIX (Homo sapiens)
assayName: In vitro binding affinity of radiolabeled Conjugate 17 in SKRC52 cells (gamma counting)
Design: endogenous in cells; host or cells: SKRC52
testSettings: SKRC52 cells; 64Cu-radiolabeled; 1 h at 25° C.; FIG. 9
pKd: −log10 of the molar value.

{"molecule": "NS(=O)(=O)c1c(F)c(F)c(S(=O)(=O)CCC(=O)NCCOCCOCCC(=O)NCCNC(=O)CCC(C(=O)O)N2CCN(CC(=O)O)CCN(CC(=O)O)CC2)c(NC2CCCCCCC2)c1F (stereo not shown) [radiolabeled Conjugate 17]", "pKd": 8.23}
